Hey, just so you know, these numbers are from PubChem BioAssay.

Experiment: UWB1.289_BRCA1 ovarian cancer growth, cell-based, BGB or cisplatin combinations (AID 1671459)
Conditions: UWB1.289 BRCA1 ovarian carcinoma, drug combinations, BGB combination, concentration series, at 5 µM, stronger effect = higher value
In this section, each of the compounds is paired with its reported inhibition.
Property Measured: inhibition (%)

compound=CCOC(=O)Nc1ccc(NCc2ccc(F)cc2)nc1N property_measured=inhibition numeric_readout=-6.96
compound=COc1c2ccoc2cc2oc(=O)ccc12 property_measured=inhibition numeric_readout=5.68
compound="CN(N=O)C(=O)NC1C(O)OC(CO)C(O)C1O (stereo not given)" property_measured=inhibition numeric_readout=-8.48
compound=CN1C[C@@H]2C[C@H]1CN2c1cc2c(cc1F)c(=O)c(C(=O)O)cn2C1CC1 property_measured=inhibition numeric_readout=-23.3
compound=C[C@@H](CN1CC(=O)NC(=O)C1)N1CC(=O)NC(=O)C1 property_measured=inhibition numeric_readout=-10.8
compound=CN1CCN(c2c(F)cc3c(=O)c(C(=O)O)cn(CCF)c3c2F)CC1 property_measured=inhibition numeric_readout=7.04
compound="COC1C(OC(N)=O)C(O)C(Oc2ccc3c(O)c(NC(=O)c4ccc(O)c(CC=C(C)C)c4)c(=O)oc3c2C)OC1(C)C (stereo not given)" property_measured=inhibition numeric_readout=-28.9
compound=CN1CCN(c2c(F)cc3c(=O)c(C(=O)O)cn4c3c2OCN4C)CC1 property_measured=inhibition numeric_readout=1.13
compound=O=c1[nH]c(=O)n([C@H]2C[C@H](O)[C@@H](CO)O2)cc1Br property_measured=inhibition numeric_readout=35.6
compound="CC1(C(=O)O)CCC2(C)CCC3(C)C(=CC(=O)C4C5(C)CCC(OC(=O)CCC(=O)O)C(C)(C)C5CCC43C)C2C1 (stereo not given)" property_measured=inhibition numeric_readout=-13.7

====

Assay: ovarian cancer cell viability with rucaparib, profiling panel, oncology-focused library, rucaparib conditional (AID 1508598)
Settings: patient-derived ovarian cancer cells, CellTiter-Glo viability, 144 h; at 0.00122 µM; OCI-P5x cells; without rucaparib
The source made the active and inactive calls.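 Rule for the calls: active = normalized viability below 100% at a tested concentration; inactive = the rest.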
Labels: 1 (yes) (active), 0 (no) (inactive)

chemical_structure=FC(F)c1nc2ccccc2n1-c1nc(N2CCOCC2)nc(N2CCOCC2)n1 classification="1 (yes)"
chemical_structure=O=C(NOCC1CC1)c1ccc(F)c(F)c1Nc1ccc(I)cc1Cl classification="0 (no)"
chemical_structure=Nc1nc(Cl)nc2c1ncn2[C@@H]1O[C@H](CO)[C@@H](O)[C@@H]1F classification="0 (no)"
chemical_structure=CNC(=O)c1ccccc1Sc1ccc2c(/C=C/c3ccccn3)n[nH]c2c1 classification="1 (yes)"
chemical_structure=Clc1ccc(Nc2nnc(Cc3ccncc3)c3ccccc23)cc1 classification="1 (yes)"

====

In this section, each of the molecules is paired with its reported inhibition.
Target: 6-phosphogluconate dehydrogenase, decarboxylating (Homo sapiens)
Assay: 6PGD enzyme inhibitors, primary screen, biochemical, human, recombinant enzyme, NADPH absorbance (AID 1159550)
Settings: recombinant 6PGD, NADPH absorbance 341 nm; at 10 µM; stronger effect = higher value
Property Measured: inhibition (%)

molecule=CC(=O)N[C@@H]1[C@@H](O)[C@H](O)[C@@H](CO)O[C@H]1O units_text=% numeric_readout=-7.13
molecule="COc1cc2c(cc1OC)C1(O)C(=O)c3ccc(O)c(C(=O)O)c3OC1CO2 (stereo not given)" units_text=% numeric_readout=11.5
molecule="COc1cc2c(c(OC)c1OC)-c1ccc(OC)c(=O)cc1C(NC(C)=O)CC2 (stereo not given)" units_text=% numeric_readout=-26.1
molecule=O=C1O[C@H]([C@@H](O)CO)C(O)=C1O units_text=% numeric_readout=-9.94
molecule=COc1ccc(-c2cc(=O)c3ccccc3o2)cc1OC units_text=% numeric_readout=-3.02
molecule=CSC(N)=NCCC[C@H](N)C(=O)O units_text=% numeric_readout=-13.5
molecule=NCCC(=O)N[C@@H](Cc1cnc[nH]1)C(=O)O units_text=% numeric_readout=-1.18
molecule=CC(=O)O[C@H]1CC[C@@]2(C)C(=CC(=O)[C@H]3[C@@H]4CC[C@H]([C@H](C)CCCC(C)C)[C@@]4(C)CC[C@@H]32)C1 units_text=% numeric_readout=-8.76
molecule=COc1c2ccoc2cc2oc(C)cc(=O)c12 units_text=% numeric_readout=12.5
molecule="CC(=O)OC1CCC2(C)C3=C(CC[C@H]2C1(C)C)[C@@]1(C)CC[C@@H]([C@@H](C)CCC=C(C)C)[C@]1(C)CC3 (stereo not given in full)" units_text=% numeric_readout=-9.29
molecule=COC(=O)c1c(Cl)c(Cl)c(C(=O)OC)c(Cl)c1Cl units_text=% numeric_readout=-11.1
molecule=CC(C)c1nc(N(C)S(C)(=O)=O)nc(-c2ccc(F)cc2)c1/C=C/[C@@H](O)C[C@@H](O)CC(=O)O units_text=% numeric_readout=1.44
molecule=CC/C(=C(\c1ccccc1)c1ccc(OCCN(C)C)cc1)c1ccccc1 units_text=% numeric_readout=1.2
molecule="NCC(O)CC(=O)O (stereo not given)" units_text=% numeric_readout=-18.3
molecule="C=C1C(N)CC2CC1C2(C)C (stereo not given)" units_text=% numeric_readout=16.7
molecule="CCC(C)C(=O)OC1[C@@H]2CC3=C4CC(=O)O[C@@H](c5ccoc5)[C@]4(C)CCC3[C@@](C)(C2=O)[C@@H](CC(=O)OC)C1(C)C (stereo not given in full)" units_text=% numeric_readout=6.33
molecule="COC(=O)C[C@H]1C(C)(C)C(OC(C)=O)[C@]2(O)C=C3C4CC(=O)O[C@@H](c5ccoc5)[C@]4(C)CCC3[C@@]1(C)C2=O (stereo not given in full)" units_text=% numeric_readout=-4.04
molecule=COc1cc(O)c(C(=O)/C=C/c2ccccc2)c(OC)c1 units_text=% numeric_readout=-2.81
molecule=CO[C@H]1C[C@H](O[C@H]2[C@H](C)[C@@H](O[C@@H]3O[C@H](C)C[C@H](N(C)C)[C@H]3O)[C@@H](C)C[C@@]3(CO3)C(=O)[C@H](C)[C@@H](O)[C@@H](C)[C@@H](C)OC(=O)[C@@H]2C)O[C@@H](C)[C@@H]1O units_text=% numeric_readout=-12.7
molecule="CNCCC(Oc1ccc(C(F)(F)F)cc1)c1ccccc1 (stereo not given)" units_text=% numeric_readout=19
